Tested on: HOP-92
Assay: NCI tumour cell line growth inhibition, 48 h
The source made the active and inactive calls. No stated cut-off is given here; in the data, active = GI50 up to about 1.1 µM and inactive = higher.
Classes used: active, inactive

# COMPOUND, CLASS_ASSIGNMENT
data = [
    ("Cc1cc2[n-][n+]3ncc(-c4ccccc4)n3c2cc1[N+](=O)[O-]", "inactive"),
    ("COc1cccc(CCn2c(N)c(C#N)c3ccc([N+](=O)[O-])cc3c2=O)c1", "inactive"),
    ("ON(CCc1ccccn1)Cc1ccccc1", "inactive"),
    ("C[n+]1c(-c2ccc(/C=N/NC(=O)c3ccc(C(=O)N/N=C/c4ccc(-c5cn6ccccc6[n+]5C)cc4)cc3)cc2)cn2ccccc21", "inactive"),
    ("CCOC(=O)N/N=C(/N)Cc1ccccc1", "inactive"),
    ("NC(=O)C(=O)N/N=C(\\CC1(O)C(=O)Nc2ccccc21)c1ccc2ccccc2c1 (stereo unspecified)", "inactive"),
    ("CC(C)(C)c1cc(C(P(=O)(O)O)P(=O)(O)O)cc(C(C)(C)C)c1O", "inactive"),
    ("COc1cccc(C2c3cc4c(cc3OC(NNS(=O)(=O)c3ccc(C)cc3)C2C)OCO4)c1OC (stereo unspecified)", "inactive"),
    ("C=C1c2nc3ccccc3n2C=C(c2ccc(Cl)cc2)N1c1ccc(OC)cc1", "inactive"),
    ("COC1/C=C(C)/C=C/C(C)/C=C/C(=O)OC(/C(C)=C/C=C(\\C)CNC(=O)[C@H](CO)NC=O)C(C)/C=C/C=C/C(OC)CC/C=C(C)/C=C/C1 (stereo partly specified)", "active"),
    ("O=C1NC2C(=CC(O)C(O)C2O)c2cc3c(cc21)OCO3 (stereo unspecified)", "active"),
    ("COc1ccc(/C=c2/s/c(=C(\\C#N)c3nc4ccccc4[nH]3)n(-c3ccccc3)c2=O)cc1", "inactive"),
    ("CCCC(=O)Oc1c2ccsc2c(OC(=O)CCC)c2ccsc12", "active"),
    ("Cc1nc2ccccc2cc1C[N+]12CN3CN(CN(C3)C1)C2", "inactive"),
    ("NC(=O)c1[nH]nc(C2OC(CO)C(O)C2O)c1O (stereo unspecified)", "inactive"),
    ("CN1CCN(c2nc3c(c(=O)n(C)c(=O)n3C)n2C)CC1", "inactive"),
    ("CC(C)C1=CC2=C(C(=O)C1=O)C13CCCC(C)(C)C1CC2OC3=O (stereo unspecified)", "inactive"),
    ("COC(=O)CCc1cc(O)c2c(c1)C(C(=O)OC)C(c1ccc(O)c(O)c1)O2 (stereo unspecified)", "inactive"),
    ("O=C(Nc1nc2c(=O)[nH]cnc2s1)c1ccccc1", "inactive"),
    ("C/C(=N\\Nc1nc2ccccc2s1)c1ncccn1", "active"),
    ("Nc1cc(O)nc(SC2=NC(N)CC(O)C2)n1 (stereo unspecified)", "inactive"),
]

----------
Tested on: OVCAR-5
Test: NCI tumour cell line growth inhibition, 48 h
Activity calls are given as the source filed them. No stated cut-off is given here; in the data, active = GI50 up to about 1.1 µM and inactive = higher.
Possible outcomes: active, inactive

# COMPOUND, CLASS_ASSIGNMENT
data = [
    ("COc1ccc(CCn2ccc(C)n2)c(OC)c1", "inactive"),
    ("CN(C)c1ccc(C2SCC(=O)N2c2nc3cc4sc(N5C(=O)CSC5c5ccc(N(C)C)cc5)nc4cc3s2)cc1 (configuration not stated)", "inactive"),
    ("CC1(C)C2CCC1(C)[C@H](O)[C@H]2Nc1cc(C(F)(F)F)cc(C(F)(F)F)c1 (some centres not stated)", "inactive"),
    ("CC1=NN(C(=O)CC(=O)Nc2cccc(C)c2)C(=O)C1/N=N/c1ccc(S(=O)(=O)CCOS(=O)(=O)O)cc1 (configuration not stated)", "inactive"),
    ("NCC(O)CN.Oc1c(Cl)c(Cl)c(Cl)c(Cl)c1Cl", "inactive"),
    ("NC(=O)c1[nH]nc(C2OC(CO)C(O)C2O)c1O (configuration not stated)", "inactive"),
    ("O=C(/C=C/c1ccccc1)Oc1cccc(O)c1", "inactive"),
    ("O=C(OCC12CC3CC(CC(C3)C1)C2)c1ccc(NCc2cc(O)ccc2O)cc1", "inactive"),
    ("COc1cc(O)c2c(c1)C(=O)C1=C(C2=O)C(O)C[C@@](C)(O)C1 (some centres not stated)", "inactive"),
    ("C[n+]1c(-c2ccc(/C=N/NC(=O)c3ccc(C(=O)N/N=C/c4ccc(-c5cn6ccccc6[n+]5C)cc4)cc3)cc2)cn2ccccc21", "inactive"),
    ("COc1cccc(CCn2c(N)c(C#N)c3ccc([N+](=O)[O-])cc3c2=O)c1", "inactive"),
    ("CN(C)Cc1cc(C(=O)/C=C/c2ccc(F)cc2)cc(CN(C)C)c1O", "inactive"),
    ("ON(CCc1ccccn1)Cc1ccccc1", "inactive"),
    ("N#Cc1c(N)c(-c2ccc(Cl)cc2)c(F)c2ccccc12", "inactive"),
    ("COc1cc(OC)c(-c2cc(=O)c3c(OC)c(OC)c(OC)c(OC)c3o2)cc1OC", "inactive"),
    ("CN=C(n1ccnc1)n1ccnc1", "inactive"),
    ("COC(=O)CCc1cc(O)c2c(c1)C(C(=O)OC)C(c1ccc(O)c(O)c1)O2 (configuration not stated)", "inactive"),
    ("Cc1ccccc1-c1c(N)nc(NC#N)nc1C(=O)Nc1ccccc1", "inactive"),
    ("O=C(O)CNC(=O)c1cccc2c(=O)c3ccccc3[nH]c12", "inactive"),
    ("Clc1ccc(OCc2nnc3sc(SSc4nn5c(COc6ccc(Cl)cc6)nnc5s4)nn23)cc1", "inactive"),
    ("CCOC(=N)n1c(=O)n(C2=NCCN2)c2ccccc21", "inactive"),
    ("COP(=O)(CC(=O)C1OC(OCc2ccccc2)C(OCc2ccccc2)C(OCc2ccccc2)C1OCc1ccccc1)OC (configuration not stated)", "inactive"),
    ("COc1cc(/C=C2/C(=O)NC(Cc3cc(OC)c(OC)c(C)c3OC)C(=O)N2Cc2ccccc2)c(OC)c(C)c1OC (configuration not stated)", "inactive"),
    ("Cc1ccc(Cl)c2c(=O)c3ccc([N+](=O)[O-])cc3sc12", "inactive"),
    ("COc1ccc(CCN2C(=O)C(=O)C(C(=O)c3ccccc3)C2c2ccccc2)cc1OC (configuration not stated)", "inactive"),
    ("CC(=O)Nc1ccc(C2C(C(=O)Nc3ccccc3C)=C(C)NC(C)=C2C(=O)Nc2ccccc2C)cc1", "inactive"),
    ("Cn1cncc1CC1COC(=O)C1C(O)c1ccccc1 (configuration not stated)", "inactive"),
    ("CCOC(=O)C(SCCO)C(C(=O)OCC)n1ccc(=O)[nH]c1=O (configuration not stated)", "inactive"),
    ("CC12Nc3c(Cl)cc(Cl)cc3N1C(=O)c1ccccc12 (configuration not stated)", "inactive"),
    ("COC(=O)C1=C(C)N(NC(=O)Nc2ccccc2)C2(N)N(NC(=O)Nc3ccccc3)C(C)=C(C(=O)OC)C12C(=O)OC (configuration not stated)", "inactive"),
    ("CC(C)/C(=N\\[N+](C)(C)C)c1ccccc1", "inactive"),
    ("Cc1ccc(/C=N/Nc2nc3ccccc3s2)s1", "inactive"),
    ("COc1cc(C=O)cc(/C=N/c2ccc(S(N)(=O)=O)cc2)c1O", "inactive"),
    ("OC1CN=C2c3ccccc3C(O)(c3ccc(Cl)cc3)N2C1 (configuration not stated)", "inactive"),
    ("CC1=NN(c2ccccc2)C(=O)C12[C@H](c1ccccc1)C2(C#N)C#N (some centres not stated)", "inactive"),
    ("NC(=O)c1oc([N+](=O)[O-])c(-c2ccccc2)c1-c1ccccc1", "inactive"),
    ("CCCNC(=O)C(C)C1CCC2(C)C=CC(=O)C(C)=C2C1O (configuration not stated)", "inactive"),
    ("CC(C)C1=CC2=C(C(=O)C1=O)C13CCCC(C)(C)C1CC2OC3=O (configuration not stated)", "inactive"),
    ("C[As](C)SCC(NC(=O)CCC(N)C(=O)O)C(=O)NCC(=O)O.c1ccncc1 (configuration not stated)", "active"),
    ("CCn1c(SCC(=O)N/N=C/c2ccccc2)nc2ccccc2c1=O", "inactive"),
    ("CC(=O)C1CC(C)=CCC12C(=O)Nc1ccccc12 (configuration not stated)", "inactive"),
    ("CC(=O)N1C2=CCCC2(C)c2ccccc21 (configuration not stated)", "inactive"),
]

----------
Consider the following molecules and their measured GI50 readings.
Test system: HCT-116
Assay: NCI tumour cell line growth inhibition, 48 h
The source made the active and inactive calls. No stated cut-off is given here; in the data, active = GI50 up to about 1.1 µM and inactive = higher.
PROPERTY_NAME: GI50

# MOLECULE, PROPERTY_NAME, MEASURED_RESULT
rows = [
    ("O=C(O)c1cccc(C(=O)O)c1[S+]([O-])Cc1ccccc1 (stereo not given)", "GI50", "> 100 µM (inactive)"),
    ("CS/C=C\\C(=O)O[C@H]1C[C@@H]2[C@@H](O)c3occ(C)c3C[C@]2(C)[C@@H](C)C1", "GI50", "17.5 µM (inactive)"),
    ("CC(C)c1nccn1Cc1ccc(Cl)cc1Cl", "GI50", "16.3 µM (inactive)"),
    ("C[C@]12CCC(=O)C=C1CC[C@@H]1C2CC[C@]2(C)NC(=O)C(C#N)CC12 (stereo not given in full)", "GI50", "> 100 µM (inactive)"),
    ("COc1ccc2c(c1)N=C(N)n1c(nc3ccccc31)S2", "GI50", "3.65 µM (inactive)"),
    ("CCOC(=O)/C(=C/c1ccc(N(C)C)cc1)N(CC)CC", "GI50", "48.1 µM (inactive)"),
    ("CC(=O)Nc1ccc(C2C(C(=O)Nc3ccccc3C)=C(C)NC(C)=C2C(=O)Nc2ccccc2C)cc1", "GI50", "> 100 µM (inactive)"),
    ("CC(CO)(CO)N1C(=O)C2C3C=CC(C3)C2C1=O (stereo not given)", "GI50", "> 100 µM (inactive)"),
    ("O=C(c1ccc(Cl)cc1)N(C(=S)N1CCN(c2ccccn2)CC1)C1CCCCC1", "GI50", "36.6 µM (inactive)"),
    ("O=C(O[C@H](/C=C/c1ccccc1)P1(=O)N(Cc2ccccc2)[C@H]2CCCC[C@@H]2N1Cc1ccccc1)c1ccccc1", "GI50", "2.79 µM (inactive)"),
]
